Recorded values, source patent US20120022121A1.

EXPERIMENT NOTES: Plasma pharmacokinetics in mice
Assay type: in vivo
DETAILS: mouse, plasma, po, 10 mg/kg, P.O.
METRIC: half-life (h)
Number in h, nothing else.

Provide measured half-life value, entry: "O=C(c1cccc(-c2cc3ccccc3[nH]2)c1)c1cc2ccccc2[nH]1"
2.97

----------
Test system: K562/Dox
EXPERIMENT NOTES: Cell viability MTT assay, 96 h
Assay type: cell-based
DETAILS: Homo sapiens, doxorubicin-resistant
Measured IC50 of individual entries

A selection of reference data follows.
ITEM SMILES	IC50
CC(=O)O[C@H]1C(=O)[C@@]2(C)[C@H]([C@H](OC(=O)c3ccccc3)[C@]3(O)C[C@H](OC(=O)[C@H](O)[C@@H](NC(=O)c4ccccc4)c4ccccc4)C(C)=C1C3(C)C)[C@]1(OC(C)=O)CO[C@@H]1C[C@@H]2O	1480 nM
CC[C@]1(O)C[C@@H]2CN(CCc3c([nH]c4ccccc34)[C@@](C(=O)OC)(c3cc4c(cc3OC)N(C)[C@H]3[C@@](O)(C(=O)OC)[C@H](OC(C)=O)[C@]5(CC)C=CCN6CC[C@]43[C@@H]65)C2)C1	140 nM
O=C(c1cccc(-c2cc3ccccc3[nH]2)c1)c1cc2ccccc2[nH]1	78.2 nM
COc1cccc2c1C(=O)c1c(O)c3c(c(O)c1C2=O)C[C@@](O)(C(=O)CO)C[C@@H]3O[C@H]1C[C@H](N)[C@H](O)[C@H](C)O1	859 nM

Determine reported IC50 for "COc1cc(C(=O)c2cccc(-c3cc4ccccc4[nH]3)c2)cc(OC)c1OC" ; test system: K562/Dox.
18 nM
